Ref: patent US20260116991A1

Experimental system: biotinylated labeled human GPC3 protein (produced in-house) (human, UniProt P51654 25-559, limits assumed, biotinylated (Dojindo, Cat. No. LK03); sites not stated)
Assay summary: ELISA, biotinylated human GPC3 protein
Measured endpoint: OD450 at 66.66 nM (OD450)
Respond numerically; units are OD450 and should not be typed.

Example entries begin here.
{"Binder": "hAb003LH3L1a (antibody, human IgG1, V domains shown, Humanized F2.154.1; VH H3 + VL L1a; expressed as human IgG1) VH: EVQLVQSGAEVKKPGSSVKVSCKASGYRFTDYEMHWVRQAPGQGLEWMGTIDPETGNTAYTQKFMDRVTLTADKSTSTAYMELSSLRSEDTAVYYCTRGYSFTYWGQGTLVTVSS VL: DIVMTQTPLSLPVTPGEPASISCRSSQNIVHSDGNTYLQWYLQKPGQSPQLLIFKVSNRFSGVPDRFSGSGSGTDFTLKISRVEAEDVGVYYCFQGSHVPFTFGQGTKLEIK", "Measured endpoint": "OD450 at 66.66 nM", "Value measured": 2.48}
{"Binder": "hAb005LH3L1a (antibody, human IgG1, V domains shown, Humanized F3.54.12; VH H3 + VL L1a; expressed as human IgG1) VH: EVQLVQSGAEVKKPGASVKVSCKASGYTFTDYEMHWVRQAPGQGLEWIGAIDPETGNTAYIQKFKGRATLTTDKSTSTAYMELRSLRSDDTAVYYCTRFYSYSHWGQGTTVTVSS VL: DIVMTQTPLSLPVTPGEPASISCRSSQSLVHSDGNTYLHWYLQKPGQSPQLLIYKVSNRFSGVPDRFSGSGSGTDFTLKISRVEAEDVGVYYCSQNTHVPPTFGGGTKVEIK", "Measured endpoint": "OD450 at 66.66 nM", "Value measured": 0.402}

Record hAb006LH3L1 (antibody, human IgG1, V domains shown, Humanized F3.38.7; VH H3 + VL L1; expressed as human IgG1) VH: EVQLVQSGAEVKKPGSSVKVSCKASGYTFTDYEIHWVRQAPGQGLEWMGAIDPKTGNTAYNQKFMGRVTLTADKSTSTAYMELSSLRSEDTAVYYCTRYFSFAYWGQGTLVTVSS VL: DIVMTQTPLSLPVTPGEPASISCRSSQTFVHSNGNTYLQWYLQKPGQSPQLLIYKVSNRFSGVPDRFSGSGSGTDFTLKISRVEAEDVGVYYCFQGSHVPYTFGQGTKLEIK . Reported OD450 at 66.66 nM: 2.33
